- Tested on: HCV RNA-replicating cell line AVA5
- TEST SUMMARY: Normalized Viral Assay
- Assay type: cell-based, Hepatitis C virus
- EXPERIMENTAL PARAMETERS: 5 μM
Quick rule for you: Normalized Viral Assay under 30 gets 1, anything else gets 0.

Sample answers from the record:
{"COMPOUND": "COc1ccc2oc(=O)cc(Sc3ccccc3F)c2c1 [compound 824]", "TARGET SYSTEM": "HCV RNA-replicating cell line AVA5", "GROUP": 0}
{"COMPOUND": "Cc1cc(C)cc(Sc2c(Sc3ccc(F)cc3Cl)c3ccccc3oc2=O)c1 [compound 473]", "TARGET SYSTEM": "HCV RNA-replicating cell line AVA5", "GROUP": 0}
{"COMPOUND": "O=c1cc(Sc2ccccc2Cl)c2cc(F)ccc2o1 [compound 894]", "TARGET SYSTEM": "HCV RNA-replicating cell line AVA5", "GROUP": 1}
{"COMPOUND": "O=c1oc2ccccc2c(Sc2ccc(Br)cc2)c1Sc1ccc(F)cc1 [compound 412]", "TARGET SYSTEM": "HCV RNA-replicating cell line AVA5", "GROUP": 1}
{"COMPOUND": "O=c1cc(Sc2ccc(F)cc2Cl)c2cc(F)ccc2o1 [compound 899]", "TARGET SYSTEM": "HCV RNA-replicating cell line AVA5", "GROUP": 1}

State whether 30 exceeds Normalized Viral Assay recorded for O=c1cc(Sc2ccccc2F)c2cc(F)ccc2o1 [compound 904] .
0

State whether 30 exceeds Normalized Viral Assay recorded for O=c1cc(Sc2cc(Cl)ccc2Cl)c2cc(F)ccc2o1 [compound 901] .
1
